Data origin, for the record: PubChem BioAssay (NCI)

System: OVCAR-4 ovarian
experiment: NCI-60 one-dose screen, 48 h
settings: 10 µM
The panel holds about 83,000 compounds, 20% with a hit somewhere; the sample as a whole holds those more often. Active and inactive are the calls of the source. Rule for the calls: active = growth percent below 10; inactive = the rest.
Respond only with the outcome that fits, drawn from 1 for active, 0 for inactive

Worked examples, 7 compounds total:
compound: O=C1NC(=S)S/C1=C\c1cn(-c2ccccc2)nc1-c1ccc([N+](=O)[O-])cc1
assayed system: OVCAR-4 ovarian
assigned category: 0
--
compound: O=C(Nc1ccc(OCc2ccc(Cl)cc2)cc1)Nc1ccc(Cl)c(C(F)(F)F)c1
assayed system: OVCAR-4 ovarian
assigned category: 0
--
compound: Cc1ccc(COc2ccc(NC(=O)Nc3ccc(Cl)c(C(F)(F)F)c3)cc2)cc1
assayed system: OVCAR-4 ovarian
assigned category: 0
--
compound: O=C(CN1CCN(c2ncnc3c2cnn3-c2ccccc2)CC1)Nc1ccc(Cl)cc1
assayed system: OVCAR-4 ovarian
assigned category: 0
--
compound: Fc1ccc(-c2csc(Nc3cccc(Nc4nc(-c5ccc(F)cc5)cs4)c3)n2)cc1
assayed system: OVCAR-4 ovarian
assigned category: 0
--
compound: Cc1ccc2c(c1)C(=O)/C(=C/c1ccc([N+](=O)[O-])cc1)S2
assayed system: OVCAR-4 ovarian
assigned category: 0
--
compound: COc1ccc(C2c3sc4ccc(C)cc4c3Oc3nc[nH]c(=O)c32)cc1 (stereo not drawn)
assayed system: OVCAR-4 ovarian
assigned category: 0

Shift focus to the following entry.
Prompt: What did the test return for "Cc1cc(N=C2NC(=O)/C(=C/c3cc(C(C)(C)C)c(O)c(C(C)(C)C)c3)S2)n[nH]1" ?
Response: 1
